tested on: HIV-1 (RF) in MT-2 cells; experiment: microbe, parasite or virus in culture; format: cell-based; conditions: Human immunodeficiency virus 1, MT2, 24 h, Table 1d, upper part; read-out: IC90
Reported IC90 values are given for each entry in this list.
property name: IC90

C=CCN1C(=O)N(CC=C)C(Cc2ccccc2)C2OS(=O)OC2C1Cc1ccccc1 (stereo not shown)    < 10 µg/mL
O=C1N(CC2CC2)C(Cc2ccccc2)C2OS(=O)OC2C(Cc2ccccc2)N1CC1CC1 (stereo not shown)    < 10 µg/mL
C=CCN1C(=O)N(CC=C)C(Cc2ccccc2)C(OC(C)=O)C(O)C1Cc1ccccc1 (stereo not shown)    < 10 µg/mL
C=CCN1C(=O)N(CCCC)C(Cc2ccccc2)C2OS(=O)OC2C1Cc1ccccc1 (stereo not shown)    10 to 100 µg/mL
O=C1OC2C(OC1=O)C(Cc1ccccc1)N(Cc1ccc3ccccc3c1)C(=O)N(Cc1ccc3ccccc3c1)C2Cc1ccccc1 (stereo not shown)    < 10 µg/mL
O=C1OC2C(O1)C(Cc1ccccc1)N(Cc1ccc3ccccc3c1)C(=O)N(Cc1ccc3ccccc3c1)C2Cc1ccccc1 (stereo not shown)    > 100 µg/mL
O=C1OC2C(O1)C(Cc1ccccc1)N(CC1CC1)C(=O)N(CC1CC1)C2Cc1ccccc1 (stereo not shown)    < 10 µg/mL
